Ref: paper PMC10065799

Test system: EPHB2 kinase domain
Assay: pTyr-Var library bacterial peptide display kinase screen (enrichment scores);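 further: log2 fold change in enrichment of variant over reference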
Type: biochemical, human
Details: sheet EPHB2; effect of the variant relative to its reference peptide in the pTyr-Var library screen
Metric: Screen

Answered examples (6):
DNEAIYDICRC [TUBA4A_Y210_R215C]: -0.1529
GADAIYDHVNE [UQCR10_Y44_I47V]: 0.825
DASENYFVMDS [TMEM240_Y77_T80M]: 2.274
NREGVYRVFAP [TGFBI_Y537_T538R]: -2.433
IGMLIYFARKA [VCAM1_Y718_I716L]: -1.317
PKSLFYLLLKP [TRPC6_Y775_L780P]: -1.737

Consider the additional sequence presented here.
Fill in the blank: the reported Screen of PTKNDYWAMPA [WWOX_Y287_L291P] is ____.
3.139

====

Target: c-Abl kinase domain (Mus musculus, UniProt P00520)
Sequence (P00520 242-493 limits assumed): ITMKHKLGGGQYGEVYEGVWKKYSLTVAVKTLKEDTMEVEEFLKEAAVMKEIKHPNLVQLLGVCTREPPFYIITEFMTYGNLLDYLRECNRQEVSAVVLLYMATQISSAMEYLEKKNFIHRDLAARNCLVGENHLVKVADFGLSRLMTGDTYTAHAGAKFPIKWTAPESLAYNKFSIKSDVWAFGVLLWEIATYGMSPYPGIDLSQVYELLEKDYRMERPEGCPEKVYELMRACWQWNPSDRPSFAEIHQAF
Assay: pTyr-Var library bacterial peptide display kinase screen (enrichment scores);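 further: log2 fold change in enrichment of variant over reference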
Format: biochemical
Conditions: fig5-data2, sheet "Abl"; Screen for the variant/reference peptide pair, pTyr-Var library
Reported Screen values for a set of sequences
Number only, no unit.

For the sequence shown here, QQIFTYDSGIH [JUP_Y22_T19I_YF] , give the reported Screen.
1.325

// query Screen value for entry VGAKTYKMSMA [CPS1_Y309_A304V]
0.4399

For the sequence shown here, CENCHYPILPL [LCK_Y25_V28L] , give the reported Screen.
0.2762

====

A collection of sequences and their measured Screen
Biological target: c-Abl kinase domain (Mus musculus, UniProt P00520)
Assay: pTyr-Var library bacterial peptide display kinase screen (enrichment scores);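 further: log2 fold change in enrichment of variant over reference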
Assay type: biochemical
Settings: fig5-data2, sheet "Abl"; Screen for the variant/reference peptide pair, pTyr-Var library

Screen of CEAIEYLESKQ [BTK_Y511_M509I] on c-Abl kinase domain (Mus musculus, UniProt P00520)?
1.454

Reported Screen for c-Abl kinase domain (Mus musculus, UniProt P00520), given NTILLYHIMAW [GPR143_Y157_S152N] ?
0.6057

Find Screen (c-Abl kinase domain (Mus musculus, UniProt P00520)) for the entry DRQASYLDKVR [KRT17_Y98_L95Q]
2.325

Lab note: need Screen with c-Abl kinase domain (Mus musculus, UniProt P00520) for entry AALLNYKAGRD [GRIN2A_Y737_V734L] , please look it up.
-0.3155

Find Screen (c-Abl kinase domain (Mus musculus, UniProt P00520)) for the entry PVFEVYPLLNC [GATA1_Y78_Q76E]
0.8954

Kindly state the measured Screen obtained for GMKIVYVFVKK [DNAI2_Y5_E2K_YF] with c-Abl kinase domain (Mus musculus, UniProt P00520).
1.393

Give recorded Screen with c-Abl kinase domain (Mus musculus, UniProt P00520) for the following sequence: FLAVGYHMPHI [IDS_Y225_K227M]
-0.568

What is its Screen for c-Abl kinase domain (Mus musculus, UniProt P00520)? Entry: VRHRHYKHTHE [CTCF_Y343_R342H]
-0.4723

Request body: readout Screen, system c-Abl kinase domain (Mus musculus, UniProt P00520), query NNRVFYGNSDC [RS1_Y177_R182C] . Return the value.
-1.349

Notebook entry, c-Abl kinase domain (Mus musculus, UniProt P00520) assay: Screen of FISLIYTNFEV [GSTP1_Y109_A114V_YF] = ?
1.388

Entry PIPIKYKAMKK [MYD88_Y257_L252P] , system c-Abl kinase domain (Mus musculus, UniProt P00520): what Screen was measured?
-1.096

Look up Screen with c-Abl kinase domain (Mus musculus, UniProt P00520) for this sequence: LSCLAYSGKDA [FXN_Y205_S202C]
-1.545

# get_value(readout= Screen, system= c-Abl kinase domain (Mus musculus, UniProt P00520)) for SRNSKYNAEST [PSEN1_Y315_K311R]
-1.342
